Record type: Ki measurement. Applies to: Serine protease 1 (Homo sapiens, UniProt P07477)
property: Ki (µM)

Study these solved cases before continuing.
N=C(N)Nc1ccc(CNC(=O)N2CCN(C(=O)CCCCC(=O)N3CCN(C(=O)NCc4ccc(NC(=N)N)cc4)CC3)CC2)cc1	54
N=C(N)Nc1ccc(CNC(=O)N2CCN(C(=O)OCC34CCC(COC(=O)N5CCN(C(=O)NCc6ccc(NC(=N)N)cc6)CC5)(CC3)CC4)CC2)cc1	20

A. N=C(N)Nc1ccc(CNC(=O)N2CCN(C(=O)O[C@@H]3CO[C@H]4[C@@H]3OC[C@H]4OC(=O)N3CCN(C(=O)NCc4ccc(NC(=N)N)cc4)CC3)CC2)cc1
B. N=C(N)N1CCC(CCNC(=O)N2CCN(C(=O)O[C@H]3CCC[C@@H](OC(=O)N4CCN(C(=O)NCCC5CCN(C(=N)N)CC5)CC4)CCC3)CC2)CC1
input: Of the two listed items, A and B , which carries the larger Ki figure? Answer format: the label of the selected item.
output: B
(B: 850 µM, A: 15 µM)

I. NCCCCCNC(=O)N1CCN(C(=O)O[C@H]2CCC[C@@H](OC(=O)N3CCN(C(=O)NCCCCCN)CC3)CCC2)CC1
II. NCc1ccc(CNC(=O)N2CCN(C(=O)O[C@H]3CCC[C@@H](OC(=O)N4CCN(C(=O)NCc5ccc(CN)cc5)CC4)CCC3)CC2)cc1
III. N=C(N)Nc1ccc(CNC(=O)N2CCN(C(=O)O[C@H]3CCC[C@@H](OC(=O)N4CCN(C(=O)NCCCCCN)CC4)CCC3)CC2)cc1
IV. N=C(N)Nc1ccc(CNC(=O)N2CCN(C(=O)CCCCCCCC(=O)N3CCN(C(=O)NCc4ccc(NC(=N)N)cc4)CC3)CC2)cc1
input: Parameters: sort_field (Ki), sort_dir (desc). Give your ranking as a list of the labels in the requested order.
output: I, II, III, IV

* * *

molecular target: Tryptase (Homo sapiens, UniProt Q9BZJ3+Q15661+Q9NRR2); assay: Evaluated for its inhibitory potency against tryptase; format: protein assay
property: Ki (nM)

Please review the following examples before continuing.
N=C(N)Nc1ccc(CCC(=O)N2CCN(C(=O)O[C@H]3CCC[C@@H](OC(=O)N4CCN(C(=O)CCc5ccc(NC(=N)N)cc5)CC4)CCC3)CC2)cc1	210
N=C(N)Nc1ccc(CNC(=O)N2CCN(C(=O)CCCCCCC(=O)N3CCN(C(=O)NCc4ccc(NC(=N)N)cc4)CC3)CC2)cc1	0.1

I. N=C(N)Nc1ccc(CNC(=O)N2CCN(C(=O)OCC34CCC(COC(=O)N5CCN(C(=O)NCc6ccc(NC(=N)N)cc6)CC5)(CC3)CC4)CC2)cc1
II. N=C(N)Nc1ccc(CNC(=O)N2CCN(C(=O)CCCCC(=O)N3CCN(C(=O)NCc4ccc(NC(=N)N)cc4)CC3)CC2)cc1
input: Which shows the larger Ki value: I or II ? Response format: the label of the selected entry.
output: II
(II: 44 nM, I: 0.4 nM)

1. O=C(CCCCCn1ccnc1)N1CCN(C(=O)O[C@H]2CCC[C@@H](OC(=O)N3CCN(C(=O)CCCCCn4ccnc4)CC3)CCC2)CC1
2. N=C(N)Nc1ccc(CNC(=O)N2CCN(C(=O)O[C@H]3CCC[C@@H](OC(=O)N4CCN(C(=O)NCCCN)CC4)CCC3)CC2)cc1
input: Look at 1 and 2 . Which one has the lower recorded Ki number? Provide the label of your selected option as the answer.
output: 2

* * *

Assay read-out Ki; system under study: Serine protease 1 (Homo sapiens, UniProt P07477).
Sequence (P07477 whole entry): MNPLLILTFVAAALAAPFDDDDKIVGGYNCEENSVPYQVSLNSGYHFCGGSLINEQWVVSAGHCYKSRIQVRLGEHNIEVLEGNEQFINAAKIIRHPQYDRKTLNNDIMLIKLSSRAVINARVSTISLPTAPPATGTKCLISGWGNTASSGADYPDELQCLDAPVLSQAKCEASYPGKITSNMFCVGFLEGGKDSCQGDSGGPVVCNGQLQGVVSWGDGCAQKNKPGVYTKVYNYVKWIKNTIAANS
property: Ki (µM)

The examples below pair each entry with its known result.
N=C(N)Nc1ccc(CNC(=O)N2CCN(C(=O)CCCCCCC(=O)N3CCN(C(=O)NCc4ccc(NC(=N)N)cc4)CC3)CC2)cc1	34
N=C(N)c1ccc(CC(=O)N2CCN(C(=O)O[C@H]3CCC[C@@H](OC(=O)N4CCN(C(=O)Cc5ccc(C(=N)N)cc5)CC4)CCC3)CC2)cc1	11

I. N=C(N)Nc1ccc(CNC(=O)N2CCN(C(=O)CCCCCC(=O)N3CCN(C(=O)NCc4ccc(NC(=N)N)cc4)CC3)CC2)cc1
II. N=C(N)Nc1ccc(CNC(=O)N2CCN(C(=O)OCc3ccc(COC(=O)N4CCN(C(=O)NCc5ccc(NC(=N)N)cc5)CC4)cc3)CC2)cc1
input: # compare Ki for I vs II ; return the one with the smaller value Bench note: the answer is the label of the chosen record.
output: II

* * *

Ki, Prothrombin (Homo sapiens, UniProt P00734), per-entry values.
property: Ki (µM)

I. N=C(N)Nc1ccc(CNC(=O)N2CCN(C(=O)O[C@H]3CCC[C@@H](OC(=O)N4CCN(C(=O)NC[C@H]5CC[C@@H](N)CC5)CC4)CCC3)CC2)cc1
II. N=C(N)N1CCC(CNC(=O)N2CCN(C(=O)O[C@H]3CCC[C@@H](OC(=O)N4CCN(C(=O)NCC5CCN(C(=N)N)CC5)CC4)CCC3)CC2)CC1
input: Could you point out whether the larger Ki belongs to I or to II ? Indicate which entry you chose by stating its label.
output: I

* * *

biological target: Tryptase (Homo sapiens, UniProt Q9BZJ3+Q15661+Q9NRR2); test: Evaluated for its inhibitory potency against tryptase; format: protein assay
property: Ki (nM)

See these solved cases before continuing.
N=C(N)Nc1ccc(CC(=O)N2CCN(C(=O)O[C@H]3CCC[C@@H](OC(=O)N4CCN(C(=O)Cc5ccc(NC(=N)N)cc5)CC4)CCC3)CC2)cc1	0.5
N=C(N)N1CCC(CC(=O)N2CCN(C(=O)O[C@H]3CCC[C@@H](OC(=O)N4CCN(C(=O)CC5CCN(C(=N)N)CC5)CC4)CCC3)CC2)CC1	5
N=C(N)Nc1ccc(CNC(=O)N2CCN(C(=O)O[C@H]3C[C@H]4C[C@@H](OC(=O)N5CCN(C(=O)NCc6ccc(NC(=N)N)cc6)CC5)C[C@H]4C3)CC2)cc1	28

A. N=C(N)Nc1ccc(CNC(=O)N2CCN(C(=O)O[C@H]3CCC[C@@H](OC(=O)N4CCN(C(=O)NCCCCN)CC4)CCC3)CC2)cc1
B. CNCc1ccc(CNC(=O)N2CCN(C(=O)O[C@H]3CCC[C@@H](OC(=O)N4CCN(C(=O)NCc5ccc(CNC)cc5)CC4)CCC3)CC2)cc1
input: Returns: the argument ( A or B ) having the larger Ki. Refer to your chosen item by its label in the answer.
output: B

* * *

biological target: Tryptase (Homo sapiens, UniProt Q9BZJ3+Q15661+Q9NRR2); assay: Evaluated for its inhibitory potency against tryptase; assay type: protein assay
property: Ki (µM)

Use these answered entries as a reference point.
N=C(N)N1CCC(CCC(=O)N2CCN(C(=O)O[C@H]3CCC[C@@H](OC(=O)N4CCN(C(=O)CCC5CCN(C(=N)N)CC5)CC4)CCC3)CC2)CC1	0.002
N=C(N)Nc1ccc(CNC(=O)N2CCN(C(=O)O[C@H]3CCC[C@@H](OC(=O)N4CCN(C(=O)NCCC5CCNCC5)CC4)CCC3)CC2)cc1	0.003
N=C(N)Nc1ccc(CNC(=O)N2CCN(C(=O)O[C@H]3CCC[C@@H](OC(=O)N4CCN(C(=O)NCc5ccc(N)cc5)CC4)CCC3)CC2)cc1	0.82
N=C(N)Nc1ccc(CNC(=O)N2CCN(C(=O)O[C@H]3CCC[C@@H](OC(=O)N4CCN(C(=O)CCCCCn5ccnc5)CC4)CCC3)CC2)cc1	0.03
NCc1ccc(CNC(=O)N2CCN(C(=O)O[C@H]3CCC[C@@H](OC(=O)N4CCN(C(=O)NCc5ccc(CN)cc5)CC4)CCC3)CC2)cc1	0.0001

a. N=C(N)Nc1ccc(CNC(=O)N2CCN(C(=O)OC[C@H]3C4C=CC(CC4)[C@@H]3COC(=O)N3CCN(C(=O)NCc4ccc(NC(=N)N)cc4)CC3)CC2)cc1
b. N=C(N)Nc1ccc(CNC(=O)N2CCN(C(=O)CCCCCCCC(=O)N3CCN(C(=O)NCc4ccc(NC(=N)N)cc4)CC3)CC2)cc1
c. N=C(N)Nc1ccc(CNC(=O)N2CCN(C(=O)O[C@H]3CCC[C@@H](OC(=O)N4CCN(C(=O)NCCCC5CCNCC5)CC4)CCC3)CC2)cc1
input: List items by Ki in falling order. Please write the labels in the order that was asked for.
output: c, a, b
(c: 0.24 µM, a: 0.008 µM, b: 0.0005 µM)

1. N=C(N)Nc1ccc(CNC(=O)N2CCN(C(=O)CCCCCC(=O)N3CCN(C(=O)NCc4ccc(NC(=N)N)cc4)CC3)CC2)cc1
2. N=C(N)Nc1ccc(CNC(=O)N2CCN(C(=O)O[C@H]3CCC[C@@H](OC(=O)N4CCN(C(=O)NCC5CCNCC5)CC4)CCC3)CC2)cc1
input: Lab note: check whether 1 or 2 has the lower measured Ki. Give the label under which the chosen entry appears.
output: 1
(1: 0.004 µM, 2: 0.07 µM)

I. N=C(N)c1ccc(CCC(=O)N2CCN(C(=O)O[C@H]3CCC[C@@H](OC(=O)N4CCN(C(=O)CCc5ccc(C(=N)N)cc5)CC4)CCC3)CC2)cc1
II. O=C(CCCC1CCNCC1)N1CCN(C(=O)O[C@H]2CCC[C@@H](OC(=O)N3CCN(C(=O)CCCC4CCNCC4)CC3)CCC2)CC1
III. N=C(N)Nc1ccc(CNC(=O)N2CCN(C(=O)O[C@H]3CCC[C@@H](OC(=O)N4CCN(C(=O)CCc5ccc(N)nc5)CC4)CCC3)CC2)cc1
IV. N=C(N)Nc1ccc(CNC(=O)N2CCN(C(=O)O[C@H]3CCC[C@@H](OC(=O)N4CCN(C(=O)CCCC5CCNCC5)CC4)CCC3)CC2)cc1
V. N=C(N)N1CCC(CCNC(=O)N2CCN(C(=O)O[C@H]3CCC[C@@H](OC(=O)N4CCN(C(=O)NCCC5CCN(C(=N)N)CC5)CC4)CCC3)CC2)CC1
input: Number of molecules to sort: 5. Sort criterion: Ki, ascending. Please write the labels in the order that was asked for.
output: I, IV, V, II, III
